The measurements presented in this section are drawn from patent US5807535A.

Assay: Biodistribution of 99mTc complexes in rats
Format: in vivo, Australian Albino Wistar Rats
Conditions: rat, stomach, rats, 10 min, read-out: biodistribution stomach
Listed compounds paired with reported tissue uptake at 10 min
Report only the number, with the unit %ID/g understood.

Problem: Supply reported tissue uptake at 10 min belonging to this compound: O=C(O)CN(CCN(CC(=O)O)CC(=O)Nc1ccc(Cl)cc1O)CC(=O)Nc1ccc(Cl)cc1O
Result: 0.9

Problem: Supply reported tissue uptake at 10 min belonging to this compound: CC(C)(C)c1ccc(O)c(NC(=O)CN(CCN(CC(=O)O)CC(=O)Nc2cc(C(C)(C)C)ccc2O)CC(=O)O)c1
Result: 3.8

Problem: Supply reported tissue uptake at 10 min belonging to this compound: O=C(O)CN(CCN(CC(=O)O)CC(=O)Nc1ccccc1O)CC(=O)Nc1ccccc1O
Result: 0.12

Problem: Supply reported tissue uptake at 10 min belonging to this compound: Nc1ccc(O)c(NC(=O)CN(CCN(CC(=O)O)CC(=O)Nc2cc(N)ccc2O)CC(=O)O)c1
Result: 0.24

---

Experiment: Biodistribution of 67Ga complexes in mice
Type: in vivo, balb/c mice
Conditions: 3 min
Listed molecules paired with reported biodistribution muscle
Report only the number, with the unit % ID understood.

smilesCode | assayResult
CC(C)(C)c1ccc(O)c(NC(=O)CN(CCN(CC(=O)O)CC(=O)Nc2cc(C(C)(C)C)ccc2O)CC(=O)O)c1 | 5.08
O=C(O)CN(CCN(CC(=O)O)CC(=O)Nc1ccccc1O)CC(=O)Nc1ccccc1O | 12.70
Cc1cc(C)c(O)c(NC(=O)CN(CCN(CC(=O)O)CC(=O)Nc2cc(C)cc(C)c2O)CC(=O)O)c1 | 10.67

Below: the item to evaluate.
Problem: Supply reported biodistribution muscle belonging to this molecule: O=C(O)CN(CCN(CC(=O)O)CC(=O)Nc1ccc(Cl)cc1O)CC(=O)Nc1ccc(Cl)cc1O
Result: 8.63

---

Test: Biodistribution of 99mTc complexes in rats
Type: in vivo, Australian Albino Wistar Rats
Settings: rat, kidneys, rats, 3 min, read-out: biodistribution kidneys
measurementKind: tissue uptake at 0.05 h (%ID/g)
Report only the number, with the unit %ID/g understood.

Sample records with tissue uptake at 0.05 h:
smilesCode | tissue uptake at 0.05 h [%ID/g]
O=C(O)CN(CCN(CC(=O)O)CC(=O)Nc1ccccc1O)CC(=O)Nc1ccccc1O | 4.12
CC(C)(C)c1ccc(O)c(NC(=O)CN(CCN(CC(=O)O)CC(=O)Nc2cc(C(C)(C)C)ccc2O)CC(=O)O)c1 | 4.54
Nc1ccc(O)c(NC(=O)CN(CCN(CC(=O)O)CC(=O)Nc2cc(N)ccc2O)CC(=O)O)c1 | 4.7
O=C(O)CN(CCN(CC(=O)O)CC(=O)Nc1cc([N+](=O)[O-])ccc1O)CC(=O)Nc1cc([N+](=O)[O-])ccc1O | 4.27

Problem: Supply reported tissue uptake at 0.05 h belonging to this compound: O=C(O)CN(CCN(CC(=O)O)CC(=O)Nc1ccc(Cl)cc1O)CC(=O)Nc1ccc(Cl)cc1O
Result: 8.9

---

Test: Biodistribution of 99mTc complexes in rats
Assay type: in vivo, Australian Albino Wistar Rats
Settings: rat, total git, rats, 5 min, read-out: biodistribution tot GIT
measurementKind: tissue uptake at 5 min (%ID/g)
Report only the number, with the unit %ID/g understood.

compound | tissue uptake at 5 min, %ID/g
O=C(O)CN(CCN(CC(=O)O)CC(=O)Nc1ccccc1O)CC(=O)Nc1ccccc1O [Compound 1] | 0.79

Problem: Supply reported tissue uptake at 5 min belonging to this compound: CC(C)(C)c1ccc(O)c(NC(=O)CN(CCN(CC(=O)O)CC(=O)Nc2cc(C(C)(C)C)ccc2O)CC(=O)O)c1 [Compound 4]
Result: 2.62

Problem: Supply reported tissue uptake at 5 min belonging to this compound: O=C(O)CN(CCN(CC(=O)O)CC(=O)Nc1ccc(Cl)cc1O)CC(=O)Nc1ccc(Cl)cc1O [Compound 2]
Result: 2.27

Problem: Supply reported tissue uptake at 5 min belonging to this compound: Nc1ccc(O)c(NC(=O)CN(CCN(CC(=O)O)CC(=O)Nc2cc(N)ccc2O)CC(=O)O)c1 [Compound 5]
Result: 0.29
